# merged literature set: pIC50 with LIM domain kinase 1 (Homo sapiens)
# Sequence (P53667 whole entry, the tested form may be a part): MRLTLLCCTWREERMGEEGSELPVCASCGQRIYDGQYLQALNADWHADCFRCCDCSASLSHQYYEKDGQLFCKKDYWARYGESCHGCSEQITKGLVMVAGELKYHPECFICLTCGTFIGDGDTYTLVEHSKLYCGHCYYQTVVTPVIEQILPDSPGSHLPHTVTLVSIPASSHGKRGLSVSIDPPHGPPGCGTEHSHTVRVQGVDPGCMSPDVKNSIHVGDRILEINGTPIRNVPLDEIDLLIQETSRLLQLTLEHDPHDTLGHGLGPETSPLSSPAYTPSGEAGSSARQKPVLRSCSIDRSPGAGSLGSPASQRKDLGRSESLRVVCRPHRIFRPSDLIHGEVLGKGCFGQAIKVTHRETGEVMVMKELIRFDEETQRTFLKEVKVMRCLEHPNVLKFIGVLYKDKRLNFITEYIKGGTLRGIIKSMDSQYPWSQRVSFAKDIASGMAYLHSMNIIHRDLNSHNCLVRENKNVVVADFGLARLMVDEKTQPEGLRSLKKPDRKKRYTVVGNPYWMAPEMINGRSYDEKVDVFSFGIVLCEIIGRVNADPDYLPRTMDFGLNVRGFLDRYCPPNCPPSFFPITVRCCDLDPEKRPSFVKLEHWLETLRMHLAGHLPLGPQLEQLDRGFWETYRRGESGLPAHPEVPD
Here pIC50 is given on a logarithmic scale as minus log10 of the concentration in mol/L.

stdin: Entry `Cc1nc(N)c2sc3ncccc3c2n1` : reported pIC50 = ?
stdout: 4.37

stdin: How about `Nc1ncnc2c1sc1cccnc12` ?
stdout: 4.37

stdin: How about `CNc1c(C(N)=O)sc2ccccc12` ?
stdout: 4.47

stdin: How about `CCCOC(=O)c1cccc(NC(=O)C2(CN(C)C)CCN(c3ncnc4[nH]cc(C)c34)CC2)c1` ?
stdout: 7.30

stdin: How about `COC(=O)c1cccc(NC(=O)C2(CN(C)C)CCN(c3ncnc4[nH]cc(C#N)c34)CC2)c1` ?
stdout: 7.60

stdin: How about `Nc1ncnc2c1sc1cccc(-c3ccccc3)c12` ?
stdout: 5.26

stdin: How about C=CC(=O)N1CCC(Oc2n[nH]c3ncc(-c4cn(-c5c(F)ccc(NS(=O)(=O)c6cccc(-c7ccccc7)c6)c5F)nn4)cc23)C1 (stereo not drawn) ?
stdout: 7.91

stdin: How about `CCC(CC)Oc1cc(C)c(-c2cc(-c3cnc(NC(=O)C(C)C)s3)nc(-c3cnccn3)n2)c(C)c1` ?
stdout: 6.76

stdin: How about `NC(=O)c1sc2nc(-c3ccccc3)c3c(c2c1N)CCCC3` ?
stdout: 5.55

stdin: How about `NC(=O)c1sc2nc(-c3cccs3)cc(C(F)(F)F)c2c1N` ?
stdout: 5.80

stdin: How about `COC(=O)c1cccc(NC(=O)C2(CN(C)C)CCN(c3ncnc4[nH]cc(C)c34)CC2)c1` ?
stdout: 7.57

stdin: How about `COc1cc(Cl)c(-c2cc(-c3cnc(NC(C)=O)s3)nc(-c3cnccn3)n2)c(Cl)c1` ?
stdout: 7.52
